# testSystem: BIR3 domain of human cIAP-1 (residues 267-363) (Homo sapiens (Human), UniProt Q13490)
# Sequence (Q13490 267-363): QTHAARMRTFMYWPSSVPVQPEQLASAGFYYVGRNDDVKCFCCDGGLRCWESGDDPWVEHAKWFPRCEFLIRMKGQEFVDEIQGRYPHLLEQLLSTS
# methodSummary: cIAP-1 in vitro competitive displacement binding assay (fluorescence polarization; Probe A AVPIK(5&6FAM)-amide or Probe B AbuRPFK(5&6FAM)-amide)
# measurementConditions: 3 h; Probe B, @ 0.01 μM; read-out: IC50 or PI cIAP1: PI
Counter-ions that a name gives are not always drawn.
Overview of reported inhibition at 0.01 µM across a group of molecules:
assayReadout: inhibition at 0.01 µM (%)

[[record]]
molecule = "COC[C@H]1CN[C@H](C)CN1CC(=O)N1CC(C)(C)c2cnc(Cc3ccc(F)cc3F)cc21 [Example 105, hydrochloride salt]"
unitsofmeasure = "%"
quantitativereadout = 74

[[record]]
molecule = "C[C@@H]1CN(CC(=O)N2CC(C)(C)c3ccc(Cc4ccccc4)cc32)[C@@H](C(=O)N2CCOCC2)CN1 [Example 111, hydrochloride salt]"
unitsofmeasure = "%"
quantitativereadout = 63

[[record]]
molecule = "COC[C@H]1CN[C@H](C)CN1CC(=O)N1CC(C)(C)c2cnc(Cc3ccc(F)cc3)cc21 [Example 88, hydrochloride salt]"
unitsofmeasure = "%"
quantitativereadout = 84


====

# testSystem: BIR3 domain of human cIAP-1 (residues 267-363) (Homo sapiens (Human), UniProt Q13490)
# methodSummary: cIAP-1 in vitro competitive displacement binding assay (fluorescence polarization; Probe A AVPIK(5&6FAM)-amide or Probe B AbuRPFK(5&6FAM)-amide)
# measurementConditions: 3 h, read-out: IC50 or PI cIAP1: PI
Counter-ions that a name gives are not always drawn.
Note to self: values exactly at 80% are 1 (yes). So inhibition at […] at or above 80% is 1 (yes), below is 0 (no).

[[record]]
compound = "CCCC(F)(F)c1cnc2c(c1)N(C(=O)CN1C[C@@H](C)NC[C@@H]1CN1CCOC[C@H]1CC)CC2(C)C [Example 248, dihydrochloride]"
classification = "1 (yes)"

[[record]]
compound = "C[C@@H]1CN(CC(=O)N2CC(C)(C)c3ncc(Cc4ccc(F)cc4F)cc32)[C@@H](CN2CCOC2=O)CN1 [Example 200, dihydrochloride]"
classification = "1 (yes)"

[[record]]
compound = "C[C@@H]1CN(CC(=O)N2CC(C)(C)c3cnc(C(F)(F)c4ccccc4)cc32)[C@@H](CN2CCOCC2)CN1 [Example 224, dihydrochloride]"
classification = "1 (yes)"

[[record]]
compound = "C[C@@H]1CN(CC(=O)N2CC(C)(C)c3ncc(Cc4ccc(F)cc4F)cc32)[C@@H](CN2CCOCC2)CN1 [Example 236, dihydrochloride]"
classification = "1 (yes)"

[[record]]
compound = "CC(C)CC(F)(F)c1cnc2c(c1)N(C(=O)CN1C[C@@H](C)NC[C@@H]1CN1CCCC1=O)CC2(C)C [Example 216, dihydrochloride]"
classification = "0 (no)"

[[record]]
compound = "C[C@@H]1CN(CC(=O)N2CC(C)(C)c3cnc(Cc4ccc(F)cc4F)cc32)[C@@H](CN2CCC(=O)C2)CN1 [Example 207, dihydrochloride]"
classification = "1 (yes)"

[[record]]
compound = "CCCC(F)(F)c1cnc2c(c1)N(C(=O)CN1C[C@@H](C)NC[C@@H]1CN1C[C@@H](C)O[C@@H](C)C1)CC2(C)C [Example 246, dihydrochloride]"
classification = "0 (no)"

[[record]]
compound = "C[C@@H]1CN(CC(=O)N2CC(C)(C)c3ncc(C(F)(F)c4ccccc4)cc32)[C@@H](CN2CCOCC2)CN1 [Example 232, dihydrochloride]"
classification = "0 (no)"

[[record]]
compound = "CC[C@@H]1COCCN1C[C@H]1CN[C@H](C)CN1CC(=O)N1CC(C)(C)c2ncc(Cc3ccc(F)cc3)cc21 [Example 254, dihydrochloride]"
classification = "1 (yes)"

[[record]]
compound = "C[C@@H]1CN(CC(=O)N2CC(C)(C)c3cnc(Cc4ccc(F)cc4F)cc32)[C@@H](Cn2ccncc2=O)CN1 [Example 195, dihydrochloride]"
classification = "1 (yes)"

[[record]]
compound = "C[C@@H]1CN(CC(=O)N2CC(C)(C)c3ncc(Cc4ccc(F)cc4)cc32)[C@@H](CN2CC[C@@H](F)C2)CN1 [Example 241, dihydrochloride]"
classification = "1 (yes)"


====

# testSystem: BIR3 domain of human cIAP-1 (residues 267-363) (Homo sapiens (Human))
# methodSummary: cIAP-1 in vitro competitive displacement binding assay (fluorescence polarization; Probe A AVPIK(5&6FAM)-amide or Probe B AbuRPFK(5&6FAM)-amide)
# measurementConditions: Probe A AVPIK(5&6FAM)-amide; read-out: IC50 or PI cIAP1: IC50
Where a name gives a salt, the structure may show the parent alone.
The entries below are paired with their reported IC50.
assayReadout: IC50 (µM)

[[record]]
compound = "C[C@@H]1CN(CC(=O)N2CC3(CCN(C(=O)OCc4ccccc4)CC3)c3ccc(Cl)cc32)CCN1 [Example 23, hydrochloride salt]"
assayreadout = "IC50"
quantitativereadout = 11

[[record]]
compound = "CNS(=O)(=O)c1ccc2c(c1)N(C(=O)CN1CCN[C@H](C)C1)CC2"
assayreadout = "IC50"
quantitativereadout = 59

[[record]]
compound = "C[C@@H]1CN(CC(=O)N2CCc3ccc(S(=O)(=O)N(C)C)cc32)CCN1"
assayreadout = "IC50"
quantitativereadout = 57

[[record]]
compound = "C[C@@H]1CN(CC(=O)N2CCc3ccc(S(=O)(=O)c4ccccc4)cc32)CCN1 [Example 33, hydrochloride salt]"
assayreadout = "IC50"
quantitativereadout = 3.8

[[record]]
compound = "C[C@@H]1CN(CC(=O)N2CCc3cc(F)ccc32)CCN1"
assayreadout = "IC50"
quantitativereadout = 170

[[record]]
compound = "C[C@@H]1CN(CC(=O)N2CC(C)(C)c3ccc(S(=O)(=O)c4ccccc4)cc32)CCN1 [Example 43, hydrochloride salt]"
assayreadout = "IC50"
quantitativereadout = 0.45

[[record]]
compound = "C[C@@H]1CN(CC(=O)N2CC(C)(C)c3c(Cl)cccc32)CCN1"
assayreadout = "IC50"
quantitativereadout = 17


====

In this section, each of the compounds is paired with its reported pIC50.
# testSystem: BIR3 domain of human cIAP-1 (residues 267-363) (Homo sapiens (Human), UniProt Q13490)
# methodSummary: cIAP-1 in vitro competitive displacement binding assay (fluorescence polarization; Probe A AVPIK(5&6FAM)-amide or Probe B AbuRPFK(5&6FAM)-amide)
# measurementConditions: Probe B AbuRPFK(5&6FAM)-amide; read-out: IC50 or PI cIAP1: IC50
pIC50: −log10 of the molar value. Counter-ions that a name gives are not always drawn.
assayReadout: pIC50

[[record]]
compound = "COC[C@H]1CN[C@H](C)CN1CC(=O)N1CC(C)(C)c2ccc(C#N)cc21 [Example 117, hydrochloride]"
assayreadout = "pIC50"
quantitativereadout = 6.15

[[record]]
compound = "COC[C@H]1CN[C@H](C)CN1CC(=O)N1CC(C)(C)c2cnc(Oc3c(C)cccc3Cl)cc21 [Example 130, hydrochloride]"
assayreadout = "pIC50"
quantitativereadout = 7.36

[[record]]
compound = "CC(C)C(F)(F)c1cc2c(cn1)C(C)(C)CN2C(=O)CN1C[C@@H](C)NC[C@@H]1CN1CCCC1=O [Example 211, hydrochloride]"
assayreadout = "pIC50"
quantitativereadout = 7.66

[[record]]
compound = "COC[C@H]1CN[C@H](C)CN1CC(=O)N1CC(C)(C)c2cnc(N(C)c3ccccc3)cc21 [Example 84, hydrochloride salt]"
assayreadout = "pIC50"
quantitativereadout = 5.89


====

# testSystem: BIR3 domain of human XIAP (residues 252-350) (Homo sapiens (Human))
# Sequence (P98170 252-350): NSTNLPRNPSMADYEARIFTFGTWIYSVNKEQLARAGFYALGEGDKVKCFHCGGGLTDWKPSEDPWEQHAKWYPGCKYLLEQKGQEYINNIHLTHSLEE
# methodSummary: XIAP in vitro competitive displacement binding assay (fluorescence polarization)
# measurementConditions: read-out: IC50 or PI Xiap: IC50
pIC50: −log10 of the molar value. Structures can show the parent of a compound that is named as a salt.
Each entry below lists one item and its recorded pIC50 value.
assayReadout: pIC50

[[record]]
compound = "C[C@@H]1CN(CC(=O)N2CC(C)(C)c3ncc(Cc4ccc(F)cc4F)cc32)[C@@H](CN2CCOC2=O)CN1 [Example 200, dihydrochloride]"
quantitativereadout = 7.13

[[record]]
compound = "C[C@@H]1CN(CC(=O)N2CC3(CCN(C(=O)OCc4ccccc4)CC3)c3ccc(Cl)cc32)CCN1 [Example 23, hydrochloride salt]"
quantitativereadout = 4.74

[[record]]
compound = "C[C@@H]1CN(CC(=O)N2CC(C)(C)c3cc(F)c(S(=O)(=O)c4ccccc4)cc32)CCN1 [Example 47, dihydrochloride salt]"
quantitativereadout = 6.57

[[record]]
compound = "C[C@@H]1CN(CC(=O)N2CCc3cc(F)c(S(=O)(=O)c4ccccc4)cc32)CCN1 [Example 41]"
quantitativereadout = 6.33

[[record]]
compound = "C[C@@H]1CN(CC(=O)N2CC(C)(C)c3cnc(Cc4ccc(F)cc4F)cc32)[C@@H](CN2CC[C@@H](F)C2)CN1 [Example 203, dihydrochloride]"
quantitativereadout = 7.14

[[record]]
compound = "C[C@@H]1CN(CC(=O)N2CCc3ccc(S(=O)(=O)N(C)C)cc32)CCN1 [Example 32]"
quantitativereadout = 5.59

[[record]]
compound = "COC[C@H]1CN[C@H](C)CN1CC(=O)N1CC(C)(C)c2cnc(Cc3ccc(F)cc3)cc21 [Example 88, hydrochloride salt]"
quantitativereadout = 6.77

